Test system: HCV replicon 1AY93H
Assay: microbe, parasite or virus in culture
Assay type: cell-based, Hepatitis C virus (HCV)
Conditions: read-out: 1A Y93H IC50; HCV replicon 1A Y93H; Replicon Assay A
Lab note: anything with IC50 below 0.4 nM is marked y; values at 0.4 nM or higher are marked n.

Sample answers from the record:
compound	systemName	labelClass
COCc1ccc(C2Oc3cc(-c4cnc([C@@H]5CCCN5C(=O)[C@@H](NC(=O)OC)C(C)C)[nH]4)cc(F)c3-c3cc4cc(-c5cnc([C@@H]6CCCN6C(=O)[C@@H](NC(=O)OC)[C@@H]6C[C@@H](C)O[C@@H](C)C6)[nH]5)ccc4n32)s1 (single isomer, unassigned) [Compound 535]	HCV replicon 1AY93H	y
COC(=O)N[C@H](C(=O)N1CCC[C@H]1c1cnc(-c2ccc3c(c2)cc2n3C(c3cc4ccccc4s3)Oc3cc(-c4cnc([C@@H]5CCCN5C(=O)[C@@H](NC(=O)OC)C5CCOCC5)[nH]4)ccc3-2)[nH]1)C1CCOCC1 (single isomer, unassigned) [Compound 810]	HCV replicon 1AY93H	y
COC(=O)N[C@H](C(=O)N1CCC[C@H]1c1ncc(-c2cc(F)c3c(c2)OC(c2cc4c(s2)CCC4)n2c-3cc3cc(-c4cnc([C@@H]5C[C@H]6C[C@H]6N5C(=O)[C@@H](NC(=O)OC)C5CCOCC5)[nH]4)ccc32)[nH]1)C(C)C (single isomer, unassigned) [Compound 541]	HCV replicon 1AY93H	n
COC(=O)NC(C(=O)N1[C@@H]2C[C@@H]2C[C@H]1c1ncc(-c2ccc3c(c2)cc2n3C(c3ccc(CC4CC4)s3)Oc3cc(-c4cnc([C@@H]5CCCN5C(=O)[C@@H](NC(=O)OC)C(C)C)[nH]4)cc(F)c3-2)[nH]1)C1CCOC(C)(C)C1 (single isomer, unassigned) [Compound 417]	HCV replicon 1AY93H	y
COC(=O)N[C@H](C(=O)N1CCC[C@H]1c1nc(-c2ccc3c(c2)OC(c2ccc(C)s2)n2c-3cc3cc(-c4c[nH]c([C@@H]5NCCN5C(=O)[C@@H](NC(=O)OC)C(C)C)n4)ccc32)c[nH]1)C(C)C (single isomer, unassigned) [Compound 702]	HCV replicon 1AY93H	n
COC(=O)N[C@H](C(=O)N1CCC[C@H]1c1ncc(-c2cc(F)c3c(c2)OC(c2cc4c(s2)CCC4)n2c-3cc3cc(-c4cnc([C@@H]5C[C@H]6C[C@H]6N5C(=O)[C@@H](NC(=O)OC)C5C[C@@H](C)O[C@@H](C)C5)[nH]4)ccc32)[nH]1)C(C)C (single isomer, unassigned) [Compound 553]	HCV replicon 1AY93H	y
COC(=O)N[C@H](C(=O)N1CCC[C@H]1c1nc(-c2cc(F)c3c(c2)OC(c2ccc(C4CC4)s2)n2c-3cc3cc(-c4c[nH]c([C@@H]5C[C@H]6C[C@H]6N5C(=O)[C@@H](NC(=O)OC)C(C)C)n4)ccc32)c[nH]1)C(C)C (single isomer, unassigned) [Compound 720]	HCV replicon 1AY93H	n
COC(=O)N[C@H](C(=O)N1CCC[C@H]1c1ncc(-c2ccc3c(c2)OC(c2cc4sccc4s2)n2c-3cc3cc(-c4c[nH]c([C@@H]5C[C@H]6C[C@H]6N5C(=O)[C@@H](NC(=O)OC)C(C)C)n4)ccc32)[nH]1)C(C)C (single isomer, unassigned) [Compound 717]	HCV replicon 1AY93H	y

QUERY: Confirm or reject: IC50 of COC(=O)NC(C(=O)N1CCC[C@H]1c1ncc(-c2ccc3c(c2)cc2n3C(c3ccc(C4CC4)s3)Oc3cc(-c4cnc([C@@H]5CCCN5C(=O)[C@@H](NC(=O)OC)C(C)C)[nH]4)cc(F)c3-2)[nH]1)C1CC(C)(C)OC(C)(C)C1 (single isomer, unassigned) [Compound 421] lies strictly below 0.4 nM
RESULT: y

QUERY: Follow-up entry: COC(=O)NC(C(=O)N1[C@@H]2C[C@@H]2C[C@H]1c1ncc(-c2ccc3c(c2)cc2n3C(c3ccc(C(F)F)s3)Oc3cc(-c4cnc([C@@H]5CCCN5C(=O)[C@@H](NC(=O)OC)C(C)C)[nH]4)cc(F)c3-2)[nH]1)C1CCOC(C)(C)C1 (single isomer, unassigned) [Compound 414]
RESULT: y

QUERY: Follow-up entry: COC(=O)N[C@H](C(=O)N1CCC[C@H]1c1ncc(-c2ccc3c(c2)OC(c2cc4ccccc4s2)n2c-3cc3cc(-c4cnc([C@@H]5C[C@@H](F)CN5C(=O)[C@@H](NC(=O)OC)C5CCOCC5)[nH]4)ccc32)[nH]1)C(C)C (single isomer, unassigned) [Compound 628]
RESULT: y

QUERY: Follow-up entry: COC(=O)N[C@H](C(=O)N1CCC[C@H]1c1ncc(-c2cc(F)c3c(c2)OC(c2ccc(C(F)(F)F)s2)n2c-3cc3cc(-c4cnc([C@@H]5CCCN5C(=O)[C@@H](NC(=O)OC)C5CCOCC5)[nH]4)ccc32)[nH]1)C(C)C (single isomer, unassigned) [Compound 655]
RESULT: y

QUERY: Follow-up entry: COC(=O)NC(C(=O)N1[C@@H]2C[C@@H]2C[C@H]1c1ncc(-c2ccc3c(c2)c(F)c2n3C(c3ccc(C4CC4)s3)Oc3cc(-c4cnc([C@@H]5CCCN5C(=O)[C@@H](NC(=O)OC)C(C)C)[nH]4)ccc3-2)[nH]1)C1C[C@@H](C)O[C@@H](C)C1 (single isomer, unassigned) [Compound 644]
RESULT: y

QUERY: Follow-up entry: COC(=O)N[C@H](C(=O)N1CCC[C@H]1c1ncc(-c2cc(F)c3c(c2)OC(c2ccc(CC(C)C)s2)n2c-3cc3cc(-c4cnc([C@@H]5CCCN5C(=O)[C@@H](NC(=O)OC)C(C)C)[nH]4)ccc32)[nH]1)C(C)C (single isomer, unassigned) [Compound 521]
RESULT: n
